# credit: patent US8735384B2

- test_system: BACE1 (Homo sapiens)
- procedure_text: In vitro enzymatic BACE FRET assay
- Format: biochemical
- assay_setup: beta secretase enzyme 0.2 nM, FRET substrate 50 nM, pH 4.2; read-out: BACE1 FRET assay (IC50 class)
Each record here notes measured IC50.

These recorded examples may help you get a feel for the data.
[[record]]
molecule = "Cc1cccc(C(=O)N2CCCC2)c1-c1ccc2nc(N)c(N3CCOC(CC(C)C)C3)cc2c1 (stereo not shown)"
test_system = "BACE1 (Homo sapiens)"
measurement = "< 100 nM"

[[record]]
molecule = "Cc1cccc(C(N)c2ccccn2)c1-c1ccc2nc(N)c(N3CCOCC3)cc2c1 (stereo not shown)"
test_system = "BACE1 (Homo sapiens)"
measurement = "100 to 500 nM"

[[record]]
molecule = "Cc1cccc(C(=O)N2CCC(C)CC2)c1-c1ccc2nc(N)c(N3CCOCC3)cc2c1"
test_system = "BACE1 (Homo sapiens)"
measurement = "< 100 nM"


Documented IC50 of CCOC1CCCN(C(=O)c2cccc(C)c2-c2ccc3nc(N)c(N4CCOCC4)cc3c2)C1 (stereo not shown) : 100 to 500 nM

Documented IC50 of Cc1cccc(C(=O)N2CCCC(C)(C)C2)c1-c1ccc2nc(N)c(N3CCOCC3)cc2c1 : < 100 nM

Documented IC50 of Cc1cccc(Nc2ccccc2)c1-c1ccc2nc(N)c(N3CCOCC3)cc2c1 : 100 to 500 nM

Documented IC50 of COc1ccc(N(C)C(=O)c2cccc(C)c2-c2ccc3nc(N)c(N4CCOCC4)cc3c2)cc1 : < 100 nM

Documented IC50 of CCCN(CC)C(=O)c1cccc(C)c1-c1ccc2nc(N)c(N3CCOCC3)cc2c1 : 501 to 1000 nM

###

- test_system: UniProt P56817
- procedure_text: In vitro enzymatic BACE FRET assay
- Assay type: biochemical
- assay_setup: beta secretase enzyme 0.2 nM, FRET substrate 50 nM, pH 4.2; read-out: BACE1 FRET assay (IC50 class)
pIC50: −log10 of the molar value.
Each record here notes measured pIC50.

[[record]]
molecule = "Cc1cccc(C(=O)N2CCC(C(C)(C)C)CC2)c1-c1ccc2nc(N)c(N3CCOCC3)cc2c1"
experimental_endpoint = "pIC50"
measurement = "> 7.00"


Let me check: Cc1cccc(C(O)c2cnccn2)c1-c1ccc2nc(N)c(N3CCOCC3)cc2c1 (centres unmarked) , system UniProt P56817, measured pIC50 is 5.30 to 6.00

Let me check: Cc1cccc(C(=O)N2CCCC2C)c1-c1ccc2nc(N)c(N3CCOCC3)cc2c1 (centres unmarked) , system UniProt P56817, measured pIC50 is > 7.00

Let me check: Cc1cccc(C(=O)N2CCCC2)c1-c1ccc2nc(N)c(N3CCOC(C)(C)C3)cc2c1 , system UniProt P56817, measured pIC50 is > 7.00

Let me check: COc1cccnc1C(=O)c1cccc(C)c1-c1ccc2nc(N)c(N3CCOCC3)cc2c1 , system UniProt P56817, measured pIC50 is > 7.00

Let me check: CC(C)(C)CCc1cccc(C(=O)N2CCOCC2)c1-c1ccc2nc(N)c(N3CCOCC3)cc2c1 , system UniProt P56817, measured pIC50 is > 7.00

Let me check: Cc1cccc(C(=O)N2CC(F)(F)C2)c1-c1ccc2nc(N)c(N3CCOCC3)cc2c1 , system UniProt P56817, measured pIC50 is 6.30 to 7.00

Let me check: Cc1cccc(C(=O)N(C)C2CCC(C)CC2)c1-c1ccc2nc(N)c(N3CCOCC3)cc2c1 (centres unmarked) , system UniProt P56817, measured pIC50 is > 7.00

Let me check: CCC1CN(c2cc3cc(-c4c(C)cccc4C(=O)N4CCCC4)ccc3nc2N)CCO1 (centres unmarked) , system UniProt P56817, measured pIC50 is > 7.00

###

Each record here notes measured pIC50.
- test_system: UniProt:P56817
- procedure_text: In vitro enzymatic BACE FRET assay
- Type: biochemical
- assay_setup: beta secretase enzyme 0.2 nM, FRET substrate 50 nM, pH 4.2; read-out: BACE1 FRET assay (IC50 class)
pIC50: −log10 of the molar value.

These recorded examples may help you get a feel for the data.
[[record]]
molecule = "CC=CC(=O)c1cccc(C)c1-c1ccc2nc(N)c(N3CCOCC3)cc2c1 [Example 183]"
measurement = "6.30 to 7.00"

[[record]]
molecule = "COc1ccccc1N(C)C(=O)c1cccc(C)c1-c1ccc2nc(N)c(N3CCOCC3)cc2c1 [Example 139]"
measurement = "> 7.00"

[[record]]
molecule = "COCCC1CCN(C(=O)c2cccc(C)c2-c2ccc3nc(N)c(N4CCOCC4)cc3c2)CC1 [Example 75]"
measurement = "6.30 to 7.00"

[[record]]
molecule = "C=CCN(CC=C)C(=O)c1cccc(C)c1-c1ccc2nc(N)c(N3CCOCC3)cc2c1 [Example 116]"
measurement = "6.30 to 7.00"


Let me check: Nc1nc2cc(F)c(-c3ccccc3C(=O)N3CCCC3)cc2cc1N1CCOCC1 [Example 140] , system UniProt:P56817, measured pIC50 is 6.30 to 7.00

Let me check: CCCC(=O)c1cccc(C)c1-c1ccc2nc(N)c(N3CCOCC3)cc2c1 [Example 179] , system UniProt:P56817, measured pIC50 is 6.30 to 7.00

Let me check: CO/N=C(/c1ccccc1)c1cccc(C)c1-c1ccc2nc(N)c(N3CCOCC3)cc2c1 [Example 191] , system UniProt:P56817, measured pIC50 is > 7.00

Let me check: Cc1ccccc1C(N)c1cccc(C)c1-c1ccc2nc(N)c(N3CCOCC3)cc2c1 (centres unmarked) [Example 193] , system UniProt:P56817, measured pIC50 is > 7.00

Let me check: Cc1cccc(C(N)c2ncccc2Cl)c1-c1ccc2nc(N)c(N3CCOCC3)cc2c1 (centres unmarked) [Example 197] , system UniProt:P56817, measured pIC50 is 6.30 to 7.00

Let me check: Nc1nc2ccc(-c3ccc(F)cc3C(=O)N3CCC3)cc2cc1N1CCOCC1 [Example 128] , system UniProt:P56817, measured pIC50 is 5.30 to 6.00

###

- test_system: BACE1 (Homo sapiens, UniProt P56817)
- Sequence (P56817 46-501, species assumed): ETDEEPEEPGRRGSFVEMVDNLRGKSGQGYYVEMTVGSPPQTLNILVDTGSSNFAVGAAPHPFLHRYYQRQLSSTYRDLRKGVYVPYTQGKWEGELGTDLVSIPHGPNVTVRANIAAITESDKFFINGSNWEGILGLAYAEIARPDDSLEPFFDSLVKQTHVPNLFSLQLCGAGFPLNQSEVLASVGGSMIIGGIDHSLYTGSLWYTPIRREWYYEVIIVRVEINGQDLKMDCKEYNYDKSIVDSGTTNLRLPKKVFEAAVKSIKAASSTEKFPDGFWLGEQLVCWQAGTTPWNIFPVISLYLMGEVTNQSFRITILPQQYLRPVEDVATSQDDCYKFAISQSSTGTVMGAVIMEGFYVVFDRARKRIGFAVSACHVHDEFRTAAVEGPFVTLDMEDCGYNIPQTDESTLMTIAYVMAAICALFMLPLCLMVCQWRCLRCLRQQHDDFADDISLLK
- procedure_text: In vitro enzymatic BACE FRET assay
- Type: biochemical
- assay_setup: beta secretase enzyme 0.2 nM, FRET substrate 50 nM, pH 4.2; read-out: BACE1 FRET assay (IC50 class)
- Procedure: In Vitro Enzymatic BACE FRET (Fluorescence Resonance Energy Transfer) Assay (Enzyme Assay Data in Table 1) The assay buffer used in this screen is 0.05 M acetate, pH 4.2, 10% DMSO final, 100 uM genapol (which is a nonionic detergent, below its Critical Micelle Concentration). […] The FRET assay is terminated with by addition of Tris buffer, which raises the pH to neutrality, and the fluorescence is determined. […]
Each record here notes measured IC50.

[[record]]
molecule = "Cc1cccc(C(=O)N2CCC[C@H]2C(F)(F)F)c1-c1ccc2nc(N)c(N3CCOCC3)cc2c1"
measurement = "100 to 500 nM"

[[record]]
molecule = "Cc1cccc(OCCOC(C)C)c1-c1ccc2nc(N)c(N3CCOCC3)cc2c1"
measurement = "< 100 nM"

[[record]]
molecule = "Cc1cccc(COc2cc(C(F)(F)F)ccc2Cl)c1-c1ccc2nc(N)c(N3CCOCC3)cc2c1"
measurement = "< 100 nM"

[[record]]
molecule = "Cc1cccc(C(=O)N2C(C)C=CC2C)c1-c1ccc2nc(N)c(N3CCOCC3)cc2c1 (centres unmarked)"
measurement = "< 100 nM"


Documented IC50 of Cc1cccc(C(=O)c2nccs2)c1-c1ccc2nc(N)c(N3CCOCC3)cc2c1 : 100 to 500 nM

Documented IC50 of Nc1nc2ccc(-c3ccccc3Cl)cc2cc1N1CCOCC1 : 501 to 1000 nM

Documented IC50 of CC(C)(C)CC(=O)c1ccccc1-c1ccc2nc(N)c(N3CCOCC3)cc2c1 : 100 to 500 nM

Documented IC50 of Cc1cccc(-n2cc(Cl)cn2)c1-c1ccc2nc(N)c(N3CCOCC3)cc2c1 : 501 to 1000 nM

Documented IC50 of Nc1nc2ccc(-c3c(C(=O)N4CCCC4)cccc3C(F)(F)F)cc2cc1N1CCOCC1 : 100 to 500 nM

Documented IC50 of CC(C)(C)CCc1cccc(C(=O)N2CC[C@@H](F)C2)c1-c1ccc2nc(N)c(N3CCOCC3)cc2c1 : < 100 nM

Documented IC50 of Cc1cccc(C(c2ccccc2)N2CCCC2)c1-c1ccc2nc(N)c(N3CCOCC3)cc2c1 (centres unmarked) : 501 to 1000 nM
